Catalogue of compounds with associated pKd
- TARGET_SYSTEM: human IgG
- TEST_NAME: SPR kinetic analysis of binding between synthetic peptides and human IgG
- MEASUREMENT_CONTEXT: biotinylated peptide immobilized on sensor chip SA, human IgG as analyte, 25° C., read-out: Dissociation constants (Kd)
pKd: −log10 of the molar value. Positions of bridges follow the written chain, without caps; N, C: chain ends. Residues, ends and D or L forms follow the SMILES beside them. *: point of attachment. Biotin = O=C1N[C@H]2[C@H](CS[C@H]2CCCCC(=O)*)N1; Ahx = NCCCCCC(=O)O

>  <COMPOUND>
CC(C)C[C@@H]1NC(=O)CNC(=O)[C@H](Cc2c[nH]c3ccccc23)NC(=O)[C@H](CCC(=O)O)NC(=O)[C@H](CO)NC(=O)[C@H](CCCNC(=N)N)NC(=O)[C@H](Cc2c[nH]c3ccccc23)NC(=O)[C@H](Cc2ccc(O)cc2)NC(=O)CNC(=O)[C@@H](NC(=O)CNC(=O)CCCCCNC(=O)CCCC[C@@H]2SC[C@@H]3NC(=O)N[C@@H]32)CSSC[C@@H](C(=O)NCC(=O)O)NC1=O [IMGpep-1] ({Biotin-Ahx}-GCGYWRSEWGLCG-OH; disulfide 2-12)

>  <pKd>
7.77

$$$$
>  <COMPOUND>
CC(C)C[C@@H]1NC(=O)CNC(=O)[C@H](Cc2c[nH]c3ccccc23)NC(=O)[C@H](C)NC(=O)[C@H](CCCCN)NC(=O)[C@@H]2CCCN2C(=O)[C@H](Cc2c[nH]c3ccccc23)NC(=O)[C@H](Cc2ccc(O)cc2)NC(=O)CNC(=O)[C@H]([C@@H](C)O)NC(=O)[C@@H](NC(=O)CNC(=O)CCCCCNC(=O)CCCC[C@@H]2SC[C@@H]3NC(=O)N[C@@H]32)CSSC[C@@H](C(=O)NCC(=O)O)NC1=O [IMGpep-4] ({Biotin-Ahx}-GCTGYWPKAWGLCG-OH; disulfide 2-13)

>  <pKd>
7.55

$$$$
>  <COMPOUND>
CC(C)C[C@@H]1NC(=O)CNC(=O)[C@H](Cc2c[nH]c3ccccc23)NC(=O)[C@H](C)NC(=O)[C@H](CCCNC(=N)N)NC(=O)[C@@H]2CCCN2C(=O)[C@H](Cc2c[nH]c3ccccc23)NC(=O)[C@H](Cc2ccc(O)cc2)NC(=O)CNC(=O)[C@H]([C@@H](C)O)NC(=O)[C@@H](NC(=O)CNC(=O)CCCCCNC(=O)CCCC[C@@H]2SC[C@@H]3NC(=O)N[C@@H]32)CSSC[C@@H](C(=O)NCC(=O)O)NC1=O

>  <pKd>
7.62

$$$$
>  <COMPOUND>
CC(C)C[C@@H]1NC(=O)CNC(=O)[C@H](Cc2c[nH]c3ccccc23)NC(=O)[C@H](CCC(N)=O)NC(=O)[C@H](CO)NC(=O)[C@H](CCCNC(=N)N)NC(=O)[C@H](Cc2c[nH]c3ccccc23)NC(=O)[C@H](Cc2ccc(O)cc2)NC(=O)CNC(=O)[C@@H](NC(=O)CNC(=O)CCCCCNC(=O)CCCC[C@@H]2SC[C@@H]3NC(=O)N[C@@H]32)CSSC[C@@H](C(=O)NCC(=O)O)NC1=O [IMGpep-1E6Q] ({Biotin-Ahx}-GCGYWRSQWGLCG-OH; disulfide 2-12)

>  <pKd>
7.68

$$$$
